Reported kdis values follow for various binders
Target: T1, human SIRPγ-His monomer protein (human, UniProt Q9P1W8 29-360)
T1 construct: also called hSIRPγ
T1 sequence (Q9P1W8 29-360 limits assumed): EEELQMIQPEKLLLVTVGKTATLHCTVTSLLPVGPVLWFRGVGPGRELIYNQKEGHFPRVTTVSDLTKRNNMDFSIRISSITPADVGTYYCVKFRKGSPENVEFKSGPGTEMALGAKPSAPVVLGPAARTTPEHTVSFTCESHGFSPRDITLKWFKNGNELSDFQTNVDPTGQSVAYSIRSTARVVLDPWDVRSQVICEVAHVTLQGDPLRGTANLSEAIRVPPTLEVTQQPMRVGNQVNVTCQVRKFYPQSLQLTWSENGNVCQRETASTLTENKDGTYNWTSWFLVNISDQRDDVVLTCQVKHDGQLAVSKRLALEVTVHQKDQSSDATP
Test: BLI Octet, V5-scFv PPE captured, SIRP-His 500 nM

Please review the following examples before continuing.
binder: Antibody 36 (scFv, V domains shown, scFv in crude PPE, V5/myc-tagged) VH: QVQLVQSGAEVKKPGASVKVSCKASGYTFTDNYLHWVRQAPGQGLEWMGIIETSGGSTDYAQKFQGRVTMTRDTSTSTVYMELSSLRSEDTAVYYCARSFGGYSYDDAFDIWGQGTTVTVSS VL: DIQMTQSPSSLSASVGDRVTITCQASQGISNYLNWYQQKPGKAPKLLIYAASSLQSGVPSRFSGSGSGTDFTLTISSLQPEDFATYYCQQSYSSPYTFGQGTKVEIK
kdis: < 0.001 s⁻¹
//
binder: Antibody 50 (scFv, V domains shown, scFv in crude PPE, V5/myc-tagged) VH: QVQLVQSGAEVKKPGASVKVSCKASGYTFTGYYMHWVRQAPGQGLEWMGTINPSGGSTSYAQKFQGRVTMTRDTSTSTVYMELSSLRSEDTAVYYCVKGNGYYDLWGQGTLVTVSS VL: DIQMTQSPSSLSASVGDRVTITCRASQSISSWLAWYQQKPGKAPKLLIYDTSNLQGGVPSRFSGSGSGTDFTLTISSLQPEDFATYYCQQYDSFPWTFGQGTKVEIK
kdis: > 0.01 s⁻¹
//
binder: Antibody 48 (scFv, V domains shown, scFv in crude PPE, V5/myc-tagged) VH: QVQLVQSGAEVKKPGASVKVSCKASGYTFTSYYMHWVRQAPGQGLEWMGWMNPNSGNTGYAQKFQGRVTMTRDTSTSTVYMELSSLRSEDTAVYYCARDQMYSSYGMDVWGQGTTVTVSS VL: DIQMTQSPSSLSASVGDRVTITCRASESITNWLAWYQQKPGKAPKLLIYKASSLESGVPSRFSGSGSGTDFTLTISSLQPEDFATYYCQQSYGTPYTFGQGTKVEIK
kdis: 0.001 to 0.01 s⁻¹
//
binder: Antibody 15 (scFv, V domains shown, scFv in crude PPE, V5/myc-tagged) VH: QVQLVQSGAEVKKPGASVKVSCKASGYSFTSYGISWVRQAPGQGLEWMGWISPYNGNTNYAQKLQGRVTMTRDTSTSTVYMELSSLRSEDTAVYYCAREAYGDYGDYFDYWGQGTLVTVSS VL: DIQMTQSPSSLSASVGDRVTITCRASQGVGDRSAWYQQKPGKAPKLLIYDASNLETGVPSRFSGSGSGTDFTLTISSLQPEDFATYYCQQADTFPYTFGQGTKLEIK
kdis: 0.001 to 0.01 s⁻¹
//
binder: Antibody 53 (scFv, V domains shown, scFv in crude PPE, V5/myc-tagged) VH: QVQLVQSGAEVKKPGASVKVSCKASGHTFNNNYIHWVRQAPGQGLEWMGIINPSGGSTSYAQKFQGRVTMTRDTSTSTVYMELSSLRSEDTAVYYCARQIQDYGYYYYGMDVWGQGTTVTVSS VL: EIVMTQSPATLSVSPGERATLSCRASQSVSKYLAWYQQKPGQAPRLLIYAISARAAGIPARFSGSGSGTEFTLTISSLQSEDFAVYYCQQYYSSPPTFGQGTKVEIK
kdis: > 0.01 s⁻¹

Task item: Would you mind telling me what kdis value was observed for Antibody 28 (scFv, V domains shown, scFv in crude PPE, V5/myc-tagged) VH: QVQLVQSGAEVKKPGASVKVSCKASGYTFTSYNIHWVRQAPGQGLEWMGWISAYNGNTNYAQKLQGRVTMTRDTSTSTVYMELSSLRSEDTAVYYCALDGGQLGVAFDIWGQGTMVTVSS VL: DIQMTQSPSSLSASVGDRVTITCRASQGISNWLAWYQQKPGKAPKLLIYDASNLDAGVPSRFSGSGSGTDFTLTISSLQPEDFATYYCQQANSLPLTFGGGTKVEIK ?
Reply: 0.001 to 0.01 s⁻¹

Task item: So what does the record say about kdis for Antibody 14 (scFv, V domains shown, scFv in crude PPE, V5/myc-tagged) VH: QVQLVQSGAEVKKPGASVKVSCKASGYTFTSYYMHWVRQAPGQGLEWMGWVDPNNGDTGYAQKFQGRVTMTRDTSTSTVYMELSSLRSEDTAVYYCARDNWGSLDVWGKGTTVTVSS VL: DIVMTQSPLSLPVTPGEPASISCRSSQSLLHSNGYNYLDWYLQKPGQSPQLLIYAASTLQSGVPDRFSGSGSGTDFTLKISRVEAEDVGVYYCMQGLQTLYSFGQGTKLEIK ?
Reply: 0.001 to 0.01 s⁻¹

Task item: I'd like to know its kdis. The binder in question is Antibody 46 (scFv, V domains shown, scFv in crude PPE, V5/myc-tagged) VH: QVQLVQSGAEVKKPGASVKVSCKASGYTFSSYAISWVRQAPGQGLEWMGWMDPNSGNTGYAQKFQGRVTMTRDTSTSTVYMELSSLRSEDTAVYYCARESSYYYDSSGYYPGWYFDLWGRGTLVTVSS VL: DIQMTQSPSSLSASVGDRVTITCQASQDISNYLNWYQQKPGKAPKLLIYAASTLQTGVPSRFSGSGSGTDFTLTISSLQPEDFATYYCQQSYSTPWTFGPGTKVDIK
Reply: > 0.01 s⁻¹

Task item: Value lookup for kdis; key = Antibody 25 (scFv, V domains shown, scFv in crude PPE, V5/myc-tagged) VH: EVQLLESGGGLVQPGGSLRLSCAASGFTVGSWYMSWVRQAPGKGLEWVAHVSDDGSNEFYADSVKGRFTISRDNSKNTLYLQMNSLRAEDTAVYYCARSPGYCSSTSCYRYYGMDVWGQGTTVTVSS VL: DIQMTQSPSSLSASVGDRVTITCRTSQSIGTYLNWYQQKPGKAPKLLIYDASNLPTGVPSRFSGSGSGTDFTLTISSLQPEDFATYYCQNYNSALFGPGTKVDIK
Reply: 0.001 to 0.01 s⁻¹

Task item: Find the recorded kdis belonging to Antibody 18 (scFv, V domains shown, scFv in crude PPE, V5/myc-tagged) VH: QVQLVQSGAEVKKPGASVKVSCKASGYTFTGYYMHWVRQAPGQGLEWMGWMNPNSGNTGYAQKFQGRVTMTRDTSTSTVYMELSSLRSEDTAVYYCARGSGYDAGVFDYWGQGTLVTVSS VL: DIQMTQSPSSLSASVGDRVTITCRASQGIGNDLAWYQQKPGKAPKLLIYDAKDLHPGVPSRFSGSGSGTDFTLTISSLQPEDFATYYCQQSYSFPRTFGQGTRLEIK and report it.
Reply: 0.001 to 0.01 s⁻¹
